Source of measurements: patent US20200247886A1

# target.system: T1, human CD47 expressed on cells (CD47 expressing CHO cells, Jurkat, HL60, DLD1, Raji) (human, UniProt Q08722 19-292)
# T1 construct: also called CHO-CD47; IAP
# protocol.details: flow cytometry on DLD1 cells, IgG, MFI
Here, each record is paired with measured EC50 (read off the curve) data.

Please review the entries below; each comes with its answer.
1. ABU16 (IgG) (antibody, V domains shown) VH: RVQLQQSGAELVRPGTSVKVSCKASAYAFTNYLIEWVKKRPGQGLEWIGVINPGSGGTNYNEKFKGKATLTADKSSSTAYMQLSSLTSEDSAVYFCARGDGYGSLFAYWGQGTLVTVSA VL: RHCFNQSPAIMSASPGEKVTMTCSASSSVSYMHWYQQKSGTSPKRWIYDTSNLASGVPVRFSGSGSGTSYSLTISRMEAEDAATYYCQQWSNYPFTFGSGTKLELK
~4 nM
2. ABU14 (IgG, chimeric version of the Fab) (antibody, V domains shown) VH: EVQLQQSGPELVKPGASVKISCKASGYSFTNYHIHWVKQRPGQGLEWIGWIYPGSGNTKYNEKFKGMAILTADTSSSTAYMQLSSLTSEDSAVYYCARYDYDLYLHSWGQGTTVTVSS VL: DIQINQSPSSLSASLGDTITITCHASQNINVWLSWYQQKPGNIPKLLIYKASNLHTGVPSRFSGSGSGTGFTLTISSLQPEDIATYYCQQGQSYPLTFGAGTKLEIK
~0.4 nM
3. ABU9 (IgG, chimeric version of the Fab) (antibody, V domains shown) VH: EVQLQQSGPELVKPGASVKLSCKASGFTFTNYYIHWVKQRPGQGPEWIGWIYLGSGNTKYNEKFKGKATLTADTSSSTAYLQLSTLISEDSAVYYCARYDYDLYLDSWGQGTTVTVSS VL: DIKMNQSPSSLSASLGDTITITCHASQNINVWLSWYQQKPGNIPKLLIYKASNLHTGVPSRFSGSGSGTGFTLTISSLQPEDIATYYCQQGQSYPLTFGAGTKLELK
~0.4 nM

From here, focus on the item given below.
Look up EC50 (read off the curve): Positive 3 (analogue antibody) (antibody, V domains shown) VH: QMQLVQSGAEVKKTGSSVKVSCKASGFNIKDYYLHWVRQAPGQALEWMGWIDPDQGDTEYAQKFQDRVTITRDRSMSTAYMELSSLRSEDTAMYYCNAAYGSSSYPMDYWGQGTTVTV VL: NIQMTQSPSAMSASVGDRVTITCKASQDIHRYLSWFQQKPGKVPKHLIYRANRLVSGVPSRFSGSGSGTEFTLTISSLQPEDFATYYCLQYDEFPYTFGGGTKVEIK
~0.6 nM
